Recorded values, source PubChem BioAssay AID1159580.

Below, each entry is listed with its recorded normalized growth.
assayText: chemical genetic growth profiling, strain panel (AID 1159580);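 further: tested at 20 µM; growth read once vehicle control cultures reached saturation at 30 °C; 1 = growth at the plate median or of vehicle wells; lower values mean less growth of the strain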
measurementParameters: S. cerevisiae deletion strains, growth OD, locus YLR039C, strain RIC1, stronger effect = lower value
The whole screen tested about 5,500 compounds, of which about 2,000 (36%) were called active. Not shown: some 18% with an inconclusive outcome. Some of the results follow.
// return just the number, without any unit appended

Example results:
CS(=O)(=O)c1ccc(C2=C(c3ccccc3)C(=O)OC2)cc1
0.951
CCOC(=O)c1cc(C)nc(Sc2ccccc2)c1C#N
0.895
CCOC(=O)c1c(C)cc(O)c(C)c1O
1.04

If you can, please state the reported normalized growth value of `C[C@@H]1[C@H]2[C@H](O[C@@H]3O[C@H](CO)[C@@H](O)[C@H](O)[C@H]3O)OC=C(C(=O)O)[C@H]2C[C@@H]1O` .
1.03

For CC1CC2C3CCC4=CC(=O)C=C[C@]4(C)[C@@]3(F)[C@@H](O)C[C@]2(C)[C@@]1(O)C(=O)CO (some centres not stated) , what is its reported normalized growth?
0.991

Form field: reported normalized growth of OCCN1C[C@@H](O)[C@@H](O)C(O)C1CO (some centres not stated)
0.958

Consider the compound C[C@H]1CC2C([C@@H](O)C[C@@]3(C)C2CC[C@]3(O)C(=O)CO)[C@@]2(C)C=CC(=O)C=C12 (some centres not stated) and give its measured normalized growth.
0.982

====

// reported normalized growth for each item listed
assayText: chemical genetic growth profiling, strain panel (AID 1159580);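 further: tested at 20 µM; growth read once vehicle control cultures reached saturation at 30 °C; 1 = growth at the plate median or of vehicle wells; lower values mean less growth of the strain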
measurementParameters: S. cerevisiae deletion strains, growth OD, locus YKL068W, stronger effect = lower value
Among all 5,500 compounds or so, about 2,000 (36%) were called active. About 18% were inconclusive and are not listed. The list shows a part of the results.
Give a plain numeric answer without units written out.

Consider the following illustrative entries.
CC(C)CC(NC(=O)C(Cc1ccccc1)NC(=O)CNC(=O)CNC(=O)C(N)Cc1ccc(O)cc1)C(=O)O (stereo not given)
0.989
C[C@H]1CC2C([C@@H](O)C[C@@]3(C)C2CC[C@]3(O)C(=O)CO)[C@@]2(C)C=CC(=O)C=C12 (stereo not given in full)
0.999
CC1=C(/C=C/C(C)=C/C=C/C(C)=C/C=C/C=C(C)/C=C/C=C(C)/C=C/C23OC2(C)CC(O)CC3(C)C)C(C)(C)CC(O)C1 (stereo not given)
1
CC(=O)OCC[N+](C)(C)C
1.01
COP(=O)(OC)OC=C(Cl)Cl
0.986

Looking for the measured normalized growth of `NC(=O)c1ccc[n+]([C@@H]2O[C@H](COP(=O)([O-])OP(=O)(O)OC[C@H]3O[C@@H](n4cnc5c(N)ncnc54)[C@H](O)[C@@H]3O)[C@@H](O)[C@H]2O)c1` , can you help?
0.987

====

assayText: chemical genetic growth profiling, strain panel (AID 1159580);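 further: tested at 20 µM; growth read once vehicle control cultures reached saturation at 30 °C; 1 = growth at the plate median or of vehicle wells; lower values mean less growth of the strain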
measurementParameters: S. cerevisiae deletion strains, growth OD, locus YHR079C, strain IRE1 (second series), stronger effect = lower value
Out of some 5,500 compounds screened, about 2,000 (36%) were called active. Roughly 18% stayed inconclusive and do not appear here. Some of the results follow.
Below is a list of entries, each paired with its recorded normalized growth value.
Answer with the value's number alone.

CCOC(=O)C1(O)Oc2cc(OC)cc(OC)c2C(=O)C1c1ccccc1 (stereo unspecified)
0.974
COc1ccc2c(C)cc(=O)oc2c1
1.02
COc1ccc2c(c1)OCc1c-2oc2cc(OC)ccc12
1
c1cncc(C2CCCCN2)c1 (stereo unspecified)
0.998
C[C@H]1CC2C([C@@H](O)C[C@@]3(C)C2CC[C@]3(O)C(=O)CO)[C@@]2(C)C=CC(=O)C=C12 (stereo partly specified)
1.02

Item under review: CCOC(=O)C(=O)C1(C(=O)OCC)Oc2cc(OC)cc(OC)c2C(=O)C1c1ccccc1 (stereo unspecified) . Reported normalized growth?
0.961

Please look up its normalized growth: `CS(=O)(=O)c1ccc(C2=C(c3ccccc3)C(=O)OC2)cc1`
0.992
